Catalogue of λa − λc values
- experimentDescription: Absorption characteristics: transmission spectrum of near-infrared absorbing layer of NIR filter (UV-visible spectrophotometer)
- Format: physicochemical
- details: transparent resin polycarbonate SP3810, nd(B) 1.63, film thickness 1.0 μm
measuredParameter: λa − λc (nm)

molecule: CC(=O)Nc1cc2c(cc1C1=C([O-])C(=c3cc4c(cc3NC(C)=O)=[N+](C)C(C)C4(C)C)C1=O)C(C)(C)C(C)N2C (stereo not shown) [Example A11-20, reference compound]
measuredParameter: λa − λc
measuredResult: 79
--
molecule: CCCCCCCCCCCC(=O)Nc1cc2c(cc1C1=C([O-])C(=c3cc4c(cc3NC(=O)CCCCCCCCCCC)=[N+](C)C(C)C4(C)C)C1=O)C(C)(C)C(C)N2C (stereo not shown) [Example A11-25, reference compound]
measuredParameter: λa − λc
measuredResult: 75
--
molecule: CCCCC(CC)C(=O)Nc1cc2c(cc1C1=C([O-])C(=c3cc4c(cc3NC(=O)C(CC)CCCC)=[N+](C(C)C)C(C)C4(C)C)C1=O)C(C)(C)C(C)N2C(C)C (stereo not shown)
measuredParameter: λa − λc
measuredResult: 65
--
molecule: CCCC(C)(C)C(=O)Nc1cc2c(cc1C1=C([O-])C(=c3cc4c(cc3NC(=O)C(C)(C)CCC)=[N+](C)C(C)C4(C)C)C1=O)C(C)(C)C(C)N2C (stereo not shown)
measuredParameter: λa − λc
measuredResult: 69

* * *

- experimentDescription: Absorption characteristics: transmission spectrum of near-infrared absorbing layer of NIR filter (UV-visible spectrophotometer)
- Type: physicochemical
- details: transparent resin polycarbonate SP3810, nd(B) 1.63, film thickness 2.8 μm

compound: CCCCCCCCCCCC(=O)Nc1cc2c(cc1C1=C([O-])C(=c3cc4c(cc3NC(=O)CCCCCCCCCCC)=[N+](C)C(C)C4(C)C)C1=O)C(C)(C)C(C)N2C (stereo not drawn) [Example A11-25, reference compound]
λa − λc, nm: 73
//
compound: CC(CCC(C(=O)Nc1cc2c(cc1C1=C([O-])C(=c3cc4c(cc3NC(=O)C(CCC(C)CC(C)(C)C)C(C)CC(C)(C)C)=[N+](C)C(C)C4(C)C)C1=O)C(C)(C)C(C)N2C)C(C)CC(C)(C)C)CC(C)(C)C (stereo not drawn) [Example A11-4]
λa − λc, nm: 68
//
compound: Cc1ccc(C)c(OCCCC(C)(C)C(=O)Nc2cc3c(cc2C2=C([O-])C(=c4cc5c(cc4NC(=O)C(C)(C)CCCOc4cc(C)ccc4C)=[N+](C)C(C)C5(C)C)C2=O)C(C)(C)C(C)N3C)c1 (stereo not drawn) [Example A11-13]
λa − λc, nm: 69
//
compound: CCCCCCCC(=O)Nc1cc2c(cc1C1=C([O-])C(=c3cc4c(cc3NC(=O)CCCCCCC)=[N+](C)C(C)C4(C)C)C1=O)C(C)(C)C(C)N2C (stereo not drawn) [Example A11-24, reference compound]
λa − λc, nm: 73
//
compound: CCCC(CCC)C(=O)Nc1cc2c(cc1C1=C([O-])C(=c3cc4c(cc3NC(=O)C(CCC)CCC)=[N+](C)C(C)C4(C)C)C1=O)C(C)(C)C(C)N2C (stereo not drawn) [Example A11-1]
λa − λc, nm: 69
//
compound: CCCC(C)(C)C(=O)Nc1cc2c(cc1C1=C([O-])C(=c3cc4c(cc3NC(=O)C(C)(C)CCC)=[N+](C)C(C)C4(C)C)C1=O)C(C)(C)C(C)N2C (stereo not drawn) [Example A11-14]
λa − λc, nm: 68
//
compound: CCCCC(CC)C(=O)Nc1cc2c(cc1C1=C([O-])C(=c3cc4c(cc3NC(=O)C(CC)CCCC)=[N+](C)C(C)C4(C)C)C1=O)C(C)(C)C(C)N2C (stereo not drawn) [Example A11-2]
λa − λc, nm: 69
//
compound: CC(=O)Nc1cc2c(cc1C1=C([O-])C(=c3cc4c(cc3NC(C)=O)=[N+](C)C(C)C4(C)C)C1=O)C(C)(C)C(C)N2C (stereo not drawn) [Example A11-20, reference compound]
λa − λc, nm: 76
//
compound: CCCCC(CC)C(=O)Nc1cc2c(cc1C1=C([O-])C(=c3cc4c(cc3NC(=O)C(CC)CCCC)=[N+](C(C)C)C(C)C4(C)C)C1=O)C(C)(C)C(C)N2C(C)C (stereo not drawn) [Example A11-7]
λa − λc, nm: 64

* * *

- experimentDescription: Absorption characteristics: transmission spectrum of near-infrared absorbing layer of NIR filter (UV-visible spectrophotometer)
- Format: physicochemical
- details: transparent resin polycarbonate EP5000, nd(B) 1.63, film thickness 2.4 μm

compound: CCCC(CCC)C(=O)Nc1cc2c(cc1C1=C([O-])C(=c3cc4c(cc3NC(=O)C(CCC)CCC)=[N+](C)C(C)C4(C)C)C1=O)C(C)(C)C(C)N2C (stereo not shown)
λa − λc / nm: 68

compound: CCCCCCCC(=O)Nc1cc2c(cc1C1=C([O-])C(=c3cc4c(cc3NC(=O)CCCCCCC)=[N+](C)C(C)C4(C)C)C1=O)C(C)(C)C(C)N2C (stereo not shown) [Example A11-24, reference compound]
λa − λc / nm: 69

compound: CCCCC(CC)C(=O)Nc1cc2c(cc1C1=C([O-])C(=c3cc4c(cc3NC(=O)C(CC)CCCC)=[N+](C(C)C)C(C)C4(C)C)C1=O)C(C)(C)C(C)N2C(C)C (stereo not shown)
λa − λc / nm: 64

compound: CCCCCCCCCCCC(=O)Nc1cc2c(cc1C1=C([O-])C(=c3cc4c(cc3NC(=O)CCCCCCCCCCC)=[N+](C)C(C)C4(C)C)C1=O)C(C)(C)C(C)N2C (stereo not shown) [Example A11-25, reference compound]
λa − λc / nm: 69

* * *

- experimentDescription: Absorption characteristics: transmission spectrum of near-infrared absorbing layer of NIR filter (UV-visible spectrophotometer)
- Format: physicochemical
- details: transparent resin polycarbonate EP5000, nd(B) 1.63, film thickness 2.4 μm

molecule: CC(CCC(C(=O)Nc1cc2c(cc1C1=C([O-])C(=c3cc4c(cc3NC(=O)C(CCC(C)CC(C)(C)C)C(C)CC(C)(C)C)=[N+](C)C(C)C4(C)C)C1=O)C(C)(C)C(C)N2C)C(C)CC(C)(C)C)CC(C)(C)C (stereo not drawn) [Example A11-4]
λb, nm: 723

molecule: CC(=O)Nc1cc2c(cc1C1=C([O-])C(=c3cc4c(cc3NC(C)=O)=[N+](C)C(C)C4(C)C)C1=O)C(C)(C)C(C)N2C (stereo not drawn) [Example A11-20, reference compound]
λb, nm: 723

molecule: CCCCCCCC(=O)Nc1cc2c(cc1C1=C([O-])C(=c3cc4c(cc3NC(=O)CCCCCCC)=[N+](C)C(C)C4(C)C)C1=O)C(C)(C)C(C)N2C (stereo not drawn) [Example A11-24, reference compound]
λb, nm: 724

* * *

Catalogue of λmax values
- experimentDescription: Absorption characteristics: transmission spectrum of near-infrared absorbing layer of NIR filter (UV-visible spectrophotometer)
- Type: physicochemical
- details: transparent resin polycarbonate EP5000, nd(B) 1.63, film thickness 2.4 μm
measuredParameter: λmax (nm)

compound: CCCC(CCC)C(=O)Nc1cc2c(cc1C1=C([O-])C(=c3cc4c(cc3NC(=O)C(CCC)CCC)=[N+](C)C(C)C4(C)C)C1=O)C(C)(C)C(C)N2C (centres unmarked)
measuredResult: 711

compound: CCCCCCCCCCCC(=O)Nc1cc2c(cc1C1=C([O-])C(=c3cc4c(cc3NC(=O)CCCCCCCCCCC)=[N+](C)C(C)C4(C)C)C1=O)C(C)(C)C(C)N2C (centres unmarked) [Example A11-25, reference compound]
measuredResult: 710

compound: CCCCC(CC)C(=O)Nc1cc2c(cc1C1=C([O-])C(=c3cc4c(cc3NC(=O)C(CC)CCCC)=[N+](C)C(C)C4(C)C)C1=O)C(C)(C)C(C)N2C (centres unmarked)
measuredResult: 711

compound: CCCCCCCC(=O)Nc1cc2c(cc1C1=C([O-])C(=c3cc4c(cc3NC(=O)CCCCCCC)=[N+](C)C(C)C4(C)C)C1=O)C(C)(C)C(C)N2C (centres unmarked) [Example A11-24, reference compound]
measuredResult: 710

compound: CC(=O)Nc1cc2c(cc1C1=C([O-])C(=c3cc4c(cc3NC(C)=O)=[N+](C)C(C)C4(C)C)C1=O)C(C)(C)C(C)N2C (centres unmarked) [Example A11-20, reference compound]
measuredResult: 710

* * *

- experimentDescription: Absorption characteristics: transmission spectrum of near-infrared absorbing layer of NIR filter (UV-visible spectrophotometer)
- Format: physicochemical
- details: transparent resin acrylic resin BR50, nd(B) 1.56, film thickness 2.3 μm

molecule: CCCCCCCCCCCC(=O)Nc1cc2c(cc1C1=C([O-])C(=c3cc4c(cc3NC(=O)CCCCCCCCCCC)=[N+](C)C(C)C4(C)C)C1=O)C(C)(C)C(C)N2C (stereo not shown) [Example A11-25, reference compound]
resultUnits: nm
λa: 688
--
molecule: CCCCC(CC)C(=O)Nc1cc2c(cc1C1=C([O-])C(=c3cc4c(cc3NC(=O)C(CC)CCCC)=[N+](C(C)C)C(C)C4(C)C)C1=O)C(C)(C)C(C)N2C(C)C (stereo not shown)
resultUnits: nm
λa: 695
--
molecule: CCCC(C)(C)C(=O)Nc1cc2c(cc1C1=C([O-])C(=c3cc4c(cc3NC(=O)C(C)(C)CCC)=[N+](C)C(C)C4(C)C)C1=O)C(C)(C)C(C)N2C (stereo not shown)
resultUnits: nm
λa: 684
--
molecule: CCCCCCCC(=O)Nc1cc2c(cc1C1=C([O-])C(=c3cc4c(cc3NC(=O)CCCCCCC)=[N+](C)C(C)C4(C)C)C1=O)C(C)(C)C(C)N2C (stereo not shown) [Example A11-24, reference compound]
resultUnits: nm
λa: 688
